systemName: AMPK
experimentDescription: AMPK activation, enzyme-linked immunosorbent assay
conditions: EC50 for AMPK activation, ELISA
Protocol: Compounds were assayed for their ability to activate AMPK using an enzyme-linked immunosorbent assay. Reagents and procedures for measuring AMPK activation are well known and kits for AMPK activation assays are commercially available.
Listed molecules paired with reported EC50

COc1ccc(OC2CCN(C(=O)c3ccc(C(=O)NC4CCN(Cc5ccc(C#N)cc5)CC4)cn3)CC2)c(NC(C)=O)c1    > 10000 nM
N#Cc1ccc(CN2CCC(NC(=O)c3ccc(N4CCC(Oc5ccc(C(F)(F)F)cc5)CC4)cn3)CC2)cc1    < 500 nM
N#Cc1ccc(Oc2ccc(NC(=O)c3ccc(C(=O)N4CCN(Cc5ccc(F)cc5)CC4)nc3)cn2)cc1    < 500 nM

Task: Given `COc1ccc(CN2CCC(NC(=O)c3ccc(C(=O)N4CCC(C(=O)c5ccc(OC)cc5)CC4)nc3)CC2)cc1` , state its recorded EC50.
Result: < 500 nM

---

systemName: AMPK
experimentDescription: AMPK activation, enzyme-linked immunosorbent assay
conditions: EC50 for AMPK activation, ELISA
pEC50: −log10 of the molar value.
measuredAttribute: pEC50

N#Cc1ccc(Oc2ccc(NC(=O)c3ccc(C(=O)N4CCC(C(=O)c5ccc(F)cc5F)CC4)nc3)nc2)cc1 [Compound 469]    > 6.30
COc1ccc(C(=O)C2CCN(C(=O)c3ccc(C(=O)NC4CCN(Cc5ccc(N6CCCC6)cc5)CC4)nc3)CC2)cc1 [Compound 194]    > 6.30
N#Cc1ccc(-c2nnc3n2CCN(C(=O)c2ccc(C(=O)NC4CCN(Cc5cc(F)cc(F)c5)CC4)nc2)C3)cc1 [Compound 314]    < 5.00

Task: Query (molecule): N#Cc1ccc(CN2CCC(NC(=O)c3ccc(C(=O)N4CCC(C(=O)c5ccc(N6CCCC6)cc5)CC4)cn3)CC2)cc1 [Compound 365] ; field requested: pEC50
Result: > 6.30

Task: # pEC50 lookup, item O=C(NC1CCN(Cc2ccc(F)cc2)CC1)c1ccc(C(=O)N2CCC(Oc3ccc(C(F)(F)F)cc3)CC2)cn1 [Compound 179]
Result: > 6.30

Task: Which pEC50 value is on record for N#Cc1ccc(CN2CCC(NC(=O)c3ccc(N4CCN(Cc5ccccc5)CC4)cn3)CC2)cc1 [Compound 110] ?
Result: 5.30 to 6.00

---

# key: entry, value: EC50
systemName: AMPK
experimentDescription: AMPK activation, enzyme-linked immunosorbent assay
conditions: EC50 for AMPK activation, ELISA

COc1ccc(OC2CCN(C(=O)c3ccc(C(=O)NC4CCN(Cc5ccc(C#N)cc5)CC4)cn3)CC2)c(N(C)C)c1    > 10000 nM

Task: What is its EC50 for AMPK? Entry: `CC(=O)c1ccc(Oc2ccc(NC(=O)c3ccc(C(=O)N4CCC(C(=O)c5ccc(F)cc5F)CC4)nc3)cn2)cc1`
Result: < 500 nM

Task: Look up EC50 with AMPK for this compound: `N#Cc1ccc(CN2CCC(NC(=O)c3ccc(C(=O)N4CCC(S(=O)(=O)c5ccc(F)cc5)CC4)nc3)CC2)cc1`
Result: 1000 to 5000 nM

Task: Item `COc1ccc(CN2CCC(NC(=O)c3ccc(C(=O)N4CCC(Oc5cccc(NC(C)=O)c5)CC4)nc3)CC2)cc1` with AMPK - EC50?
Result: 1000 to 5000 nM

Task: Which measured EC50 belongs to `O=C(NC1CCN(Cc2ccccc2)CC1)c1ccc(Nc2cccc(Oc3ccccc3)c2)cn1` , tested on AMPK?
Result: 1000 to 5000 nM

Task: Recorded EC50 for `N#Cc1ccc(CN2CCC(NC(=O)c3ccc(C(=O)N4CCC(Oc5ccc(NC(=O)CCOCCOCCOCCOCCNC(=O)CCC[C@@H]6SC[C@@H]7NC(=O)N[C@@H]76)cc5)CC4)nc3)CC2)cc1` with AMPK, please?
Result: > 10000 nM

Task: Give recorded EC50 with AMPK for the following compound: `O=C(Nc1ccc(C(=O)N2CCN(Cc3ccc(F)cc3)CC2)cn1)c1ccc(Oc2ccc(F)cc2)nc1`
Result: 1000 to 5000 nM

---

We begin with a simple list: items and their reported pEC50.
systemName: AMPK
experimentDescription: AMPK activation, enzyme-linked immunosorbent assay
conditions: EC50 for AMPK activation, ELISA
pEC50: −log10 of the molar value.

A selection of reference data follows.
N#Cc1ccc(N2CCC(NC(=O)c3ccc(C(=O)N4CCN(Cc5ccc(F)cc5)CC4)nc3)CC2)cc1    > 6.30
N#Cc1ccc(O[C@H]2CC[C@H](NC(=O)c3ccc(C(=O)N4CCC(C(=O)c5ccc(F)cc5)CC4)cn3)CC2)cc1    > 6.30

Task: I have this compound here, COc1ccc(C(=O)C2CCN(C(=O)c3ccc(C(=O)N[C@@H]4CCN(Cc5ccc(C#N)cc5)C[C@H]4F)cn3)CC2)cc1 [Compound 452] , and I need its recorded pEC50.
Result: > 6.30

---

systemName: AMPK
experimentDescription: AMPK activation, enzyme-linked immunosorbent assay
conditions: EC50 for AMPK activation, ELISA
pEC50: −log10 of the molar value.
measuredAttribute: pEC50

Worked examples, 4 compounds total:
N#Cc1ccc(CN2CCC(NC(=O)c3ccc(C(=O)NC4CCN(Cc5ccc(C#N)cc5)CC4)nn3)CC2)cc1    < 5.00
N#Cc1ccc(CN2CCC(NC(=O)c3ccc(C(=O)N4CCC(Oc5ccc(F)cc5F)CC4)nc3)CC2)cc1    > 6.30
N#Cc1ccc(CN2CCC(NC(=O)c3ncc(C(=O)N4CCN(Cc5ccc(F)cc5)CC4)cc3C#CCNC(=O)COCCOCCOCCOCCNC(=O)CCCC[C@@H]3SC[C@@H]4NC(=O)N[C@@H]43)CC2)cc1    5.30 to 6.00
O=C(NCc1ccccc1)c1ccc(C(=O)N2CCN(Cc3ccccc3)CC2)cn1    5.30 to 6.00

Now for the compound whose pEC50 we want.
Task: Look up pEC50 for this compound: `COc1ccc(OC2CCN(C(=O)c3ccc(C(=O)N[C@H]4CC[C@@H](Oc5ccc(OC)cc5)CC4)nc3)CC2)cc1`
Result: > 6.30

---

In this section we review reported pEC50 values for a set of compounds.
systemName: AMPK
experimentDescription: AMPK activation, enzyme-linked immunosorbent assay
conditions: EC50 for AMPK activation, ELISA
pEC50: −log10 of the molar value.

Previously resolved entries follow.
N#Cc1ccc(CN2CCC(NC(=O)c3ccc(C(=O)N4CCC(Oc5ccc(C#N)c(Cl)c5)CC4)cn3)CC2)cc1    > 6.30
NC(=O)c1ccc(CN2CCC(NC(=O)c3ccc(C(=O)N4CCN(Cc5ccc(F)cc5)CC4)cn3)CC2)cc1    6.00 to 6.30
N#Cc1ccc(O[C@H]2CC[C@@H](NC(=O)c3ccc(C(=O)N4CCC(C(=O)c5ccc(F)cc5)CC4)cn3)CC2)cc1    > 6.30

Task: # lookup: pEC50 of `CC(=O)c1ccc(Oc2ccc(NC(=O)c3ccc(C(=O)N4CCN(Cc5ccc(F)cc5)CC4)nc3)cn2)cc1`
Result: > 6.30

Task: Suppose we examine the compound `COc1cccc(CN2CCC(NC(=O)c3ccc(C(=O)N4CCC(Oc5ccc(S(C)(=O)=O)cc5)CC4)nc3)CC2)c1` ; what pEC50 value has been reported?
Result: 5.30 to 6.00

Task: Tell me the measured pEC50 of `N#Cc1ccc(O[C@H]2CC[C@@H](NC(=O)c3ccc(C(=O)N4CC[C@H](Oc5ccc(F)cc5)C4)cn3)CC2)cc1` , please.
Result: 5.30 to 6.00

Task: Which pEC50 is listed for `CC(=O)Nc1ccc(OC2CCN(C(=O)c3ccc(C(=O)NC4CCN(Cc5ccc(C#N)cc5)CC4)cn3)CC2)cc1` ?
Result: > 6.30

Task: I have this compound here, `N#Cc1ccc(CN2CCC(NC(=O)c3cccc(C(=O)NC4CCN(Cc5ccc(C#N)cc5)CC4)n3)CC2)cc1` , and I need its recorded pEC50.
Result: 5.30 to 6.00

Task: Could you share which pEC50 value was measured for `O=C(NC1CCN(Cc2ccc(OC(F)(F)F)cc2)CC1)c1ccc(C(=O)N2CCC(S(=O)(=O)c3ccc(F)cc3)CC2)nc1` ?
Result: > 6.30

Task: What value of pEC50 has been recorded for this entry: `CC(=O)c1ccc(Oc2ccc(NC(=O)c3ccc(C(=O)N4CCC(S(=O)(=O)c5ccc(F)cc5)CC4)nc3)cn2)cc1`
Result: 5.30 to 6.00

Task: Endpoint output: pEC50 of `O=C(c1ccc(N2CCC(Oc3ccc(C(F)(F)F)cc3)CC2)nc1)N1CCN(Cc2ccc(F)cc2)CC1` . Value?
Result: 5.30 to 6.00
